Where do these numbers come from? They come from patent US20200061062A1.

Could you please report measured EC50 for the items listed next?
System: T cell proliferation
Experiment: Stimulated T cell proliferation (Mouse TCE Stim, Table 4)
Type: cell-based
Conditions: stimulated T cell proliferation, read-out: Mouse TCE Stim (EC50)
Answers are plain numbers, in µM.

Take a look at these entries with their results.
- MOLECULE: "Cc1cccc2nc(Cn3cnc4c(N)ncnc43)n(-c3ccccc3F)c(=O)c12"
  READOUT UNIT: "µM"
  EC50: 5
- MOLECULE: "O=c1c2c(F)cccc2nc(CSc2ncnc3[nH]cnc23)n1Cc1ccccc1"
  READOUT UNIT: "µM"
  EC50: 2.6
- MOLECULE: "O=c1c2ccccc2nc(CSc2ncnc3[nH]cnc23)n1-c1ccccc1Cl"
  READOUT UNIT: "µM"
  EC50: 5.5
- MOLECULE: "Nc1ncnc2c1ncn2Cc1nc2cccc(F)c2c(=O)n1-c1ccccc1Cl"
  READOUT UNIT: "µM"
  EC50: 3.9
- MOLECULE: "COc1ccccc1-n1c(CSc2ncnc3[nH]cnc23)nc2ccccc2c1=O"
  READOUT UNIT: "µM"
  EC50: 4.1

For each listed entry, give its EC50.
1. O=c1c2cccc(Cl)c2nc(CSc2ncnc3[nH]cnc23)n1-c1ccccc1Cl
2. Cc1cccc2nc(CSc3ncnc4[nH]cnc34)n(-c3ccccc3C(C)C)c(=O)c12

3.5
2.9

For each listed entry, give its EC50.
1. Cc1cccc2nc(Cn3cnc4c(N)ncnc43)n(-c3ccccc3C(C)C)c(=O)c12
2. Nc1ncnc2c1ncn2Cc1nc2cccc(F)c2c(=O)n1Cc1ccccc1
3. Cc1ccccc1-n1c(Cn2cnc3c(N)ncnc32)nc2cccc(C)c2c1=O
4. O=c1c2ccc(F)cc2nc(CSc2ncnc3[nH]cnc23)n1-c1ccccc1Cl
5. Cc1cccc2nc(Cn3cnc4c(N)ncnc43)n(-c3ccccc3Cl)c(=O)c12

3.4
6.3
6
2.3
4.2
